Target: T1, hPDL1(19-239)-TVMV-His (human, UniProt Q9NZQ7 19-239)
T1 construct: The text says amino acids 18-239, the construct name says 19-239; Expressed in HEK293T cells; Used at 10 nM final in the HTRF assay; also called PD-L1-His; PD-L1-TVMV-His
T1 sequence (Q9NZQ7 other isoform, or with tags, fused parts or gaps limits assumed): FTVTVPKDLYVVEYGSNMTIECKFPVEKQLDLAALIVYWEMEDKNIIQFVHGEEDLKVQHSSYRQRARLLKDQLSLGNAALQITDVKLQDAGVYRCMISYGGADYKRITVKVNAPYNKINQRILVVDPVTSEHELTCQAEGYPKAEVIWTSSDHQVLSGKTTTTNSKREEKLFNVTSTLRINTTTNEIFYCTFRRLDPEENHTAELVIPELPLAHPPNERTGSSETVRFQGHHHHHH
Experiment: HTRF competition, PD-1-Ig binding to PD-L1-His
Positions of bridges follow the written chain, without caps; N, C: chain ends. Non-standard residues stand in square brackets, D forms with d. Phe(4-tBu) = CC(C)(C)c1ccc(C[C@H](N)C(=O)O)cc1; 2Nal = N[C@@H](Cc1ccc2ccccc2c1)C(=O)O; NMeNle = CCCC[C@H](NC)C(=O)O; αMeP = C[C@@]1(C(=O)O)CCCN1; NMeA = CN[C@@H](C)C(=O)O; Sar = CNCC(=O)O
// IC50 lookup, one value per entry

# annotated cases, reported IC50 shown
Query string: Find the recorded IC50 belonging to {CH2CO}-[2Nal][NMeA]NPHL[Sar]WSW[NMeNle][NMeNle]RCG-NH2 (thioether N-14; SMILES CCCC[C@H]1C(=O)N(C)[C@@H](CCCC)C(=O)N[C@@H](CCCNC(=N)N)C(=O)N[C@H](C(=O)NCC(N)=O)CSCC(=O)N[C@@H](Cc2ccc3ccccc3c2)C(=O)N(C)[C@@H](C)C(=O)N[C@@H](CC(N)=O)C(=O)N2CCC[C@H]2C(=O)N[C@@H](Cc2c[nH]cn2)C(=O)N[C@@H](CC(C)C)C(=O)N(C)CC(=O)N[C@@H](Cc2c[nH]c3ccccc23)C(=O)N[C@@H](CO)C(=O)N[C@@H](Cc2c[nH]c3ccccc23)C(=O)N1C) [Compound No. 26] and report it.
Result string: 15 nM

Query string: # iterate: {CH2CO}-[Phe(4-tBu)][NMeA]NPHL[Sar]WSW[NMeNle][NMeNle]RCG-NH2 (thioether N-14; SMILES CCCC[C@H]1C(=O)N(C)[C@@H](CCCC)C(=O)N[C@@H](CCCNC(=N)N)C(=O)N[C@H](C(=O)NCC(N)=O)CSCC(=O)N[C@@H](Cc2ccc(C(C)(C)C)cc2)C(=O)N(C)[C@@H](C)C(=O)N[C@@H](CC(N)=O)C(=O)N2CCC[C@H]2C(=O)N[C@@H](Cc2c[nH]cn2)C(=O)N[C@@H](CC(C)C)C(=O)N(C)CC(=O)N[C@@H](Cc2c[nH]c3ccccc23)C(=O)N[C@@H](CO)C(=O)N[C@@H](Cc2c[nH]c3ccccc23)C(=O)N1C) [Compound No. 37]
Result string: 1270 nM

Query string: # iterate: {CH2CO}-F[NMeA]NPHA[Sar]WSW[NMeNle][NMeNle]RCG-NH2 (thioether N-14; SMILES CCCC[C@H]1C(=O)N(C)[C@@H](CCCC)C(=O)N[C@@H](CCCNC(=N)N)C(=O)N[C@H](C(=O)NCC(N)=O)CSCC(=O)N[C@@H](Cc2ccccc2)C(=O)N(C)[C@@H](C)C(=O)N[C@@H](CC(N)=O)C(=O)N2CCC[C@H]2C(=O)N[C@@H](Cc2c[nH]cn2)C(=O)N[C@@H](C)C(=O)N(C)CC(=O)N[C@@H](Cc2c[nH]c3ccccc23)C(=O)N[C@@H](CO)C(=O)N[C@@H](Cc2c[nH]c3ccccc23)C(=O)N1C) [Compound No. 11]
Result string: 31 nM

Query string: # iterate: {CH2CO}-W[NMeA]NPHL[Sar]WSW[NMeNle][NMeNle]RCG-NH2 (thioether N-14; SMILES CCCC[C@H]1C(=O)N(C)[C@@H](CCCC)C(=O)N[C@@H](CCCNC(=N)N)C(=O)N[C@H](C(=O)NCC(N)=O)CSCC(=O)N[C@@H](Cc2c[nH]c3ccccc23)C(=O)N(C)[C@@H](C)C(=O)N[C@@H](CC(N)=O)C(=O)N2CCC[C@H]2C(=O)N[C@@H](Cc2c[nH]cn2)C(=O)N[C@@H](CC(C)C)C(=O)N(C)CC(=O)N[C@@H](Cc2c[nH]c3ccccc23)C(=O)N[C@@H](CO)C(=O)N[C@@H](Cc2c[nH]c3ccccc23)C(=O)N1C) [Compound No. 25]
Result string: 27 nM

We next turn to a different binder, shown below.
Query string: Find the recorded IC50 belonging to {CH2CO}-F[NMeA]N[αMeP]HL[Sar]WSW[NMeNle][NMeNle]RCG-NH2 (thioether N-14; SMILES CCCC[C@H]1C(=O)N(C)[C@@H](CCCC)C(=O)N[C@@H](CCCNC(=N)N)C(=O)N[C@H](C(=O)NCC(N)=O)CSCC(=O)N[C@@H](Cc2ccccc2)C(=O)N(C)[C@@H](C)C(=O)N[C@@H](CC(N)=O)C(=O)N2CCC[C@@]2(C)C(=O)N[C@@H](Cc2c[nH]cn2)C(=O)N[C@@H](CC(C)C)C(=O)N(C)CC(=O)N[C@@H](Cc2c[nH]c3ccccc23)C(=O)N[C@@H](CO)C(=O)N[C@@H](Cc2c[nH]c3ccccc23)C(=O)N1C) [Compound No. 49] and report it.
Result string: 34 nM
